All figures here come from the supplement of paper PMC10567573.

B1: STK38L (parent)
chain: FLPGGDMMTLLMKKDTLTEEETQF

# Variants of: B1
# experiment: protein stability index of a GFP-peptide fusion (GPS, HEK-293T) (PSI 1-6); higher = more stable;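 also: lentivirally expressed fusions sorted by FACS into six bins by GFP to DsRed ratio, PSI derived from sequencing read proportions per bin multiplied by bin number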
# assay_setup: c terminus: a fixed tail appended
recorded_endpoint: protein stability index
Please respond with just the number, no unit label.

// worked examples, protein stability index included
# changes, protein stability index
data = [
    ("T18K", 2),
    ("E21C", 2.01),
    ("E21I", 2),
]

Task: Query (variant): `K14R` ; field requested: protein stability index
Result: 1.96
